The molecules listed here are annotated with their z-score of subpopulation abundance.
System: Saccharomyces cerevisiae BY4741 SeMeCo community
Assay: z-score of subpopulation abundance vs DMSO median, subpopulation auxotrophic for U; higher = larger share of this subpopulation than in DMSO controls
Conditions: 10 µM; 24 h; SM minimal medium; subpopulation (auxotrophy): U
Counter-ions that a name gives are not always drawn.

Below, 3 molecules whose answers are already recorded.
{"MOLECULE": "CO/N=C1\\C[C@]2(C[C@@H]3C[C@@H](C/C=C(\\C)C[C@@H](C)/C=C/C=C4\\CO[C@@H]5[C@H](O)C(C)=C[C@@H](C(=O)O3)[C@]45O)O2)O[C@H](/C(C)=C/C(C)C)[C@H]1C", "OBSERVED VALUE": 0.66}
{"MOLECULE": "CC[C@H](C)C(=O)O[C@H]1CCC=C2C=C[C@H](C)[C@H](CC[C@@H]3C[C@@H](O)CC(=O)O3)[C@H]21", "OBSERVED VALUE": 0.22}
{"MOLECULE": "CCCCOc1ccc(C(=O)CCN2CCCCC2)cc1 [Dyclonine HCl]", "OBSERVED VALUE": -0.57}

Okay, next one:
Report value only: z-score of subpopulation abundance, Saccharomyces cerevisiae BY4741 SeMeCo community, COc1cc(Cc2cnc(N)nc2N)cc(OC)c1OC
0.2

====

Tested on: Saccharomyces cerevisiae BY4741 SeMeCo community
Experiment: z-score of subpopulation abundance vs DMSO median, subpopulation auxotrophic for H; higher = larger share of this subpopulation than in DMSO controls
Details: 10 µM; 24 h; SM minimal medium; subpopulation (auxotrophy): H
Where a name gives a salt, the structure may show the parent alone.
The compounds listed here are annotated with their z-score of subpopulation abundance.
Please reply with the value in numeric form only.

Below, 8 compounds whose answers are already recorded.
{"COMPOUND": "Nc1c(Br)cc(Br)cc1CN[C@H]1CC[C@H](O)CC1 [Ambroxol HCl]", "OBSERVED VALUE": -0.09}
{"COMPOUND": "Fc1ccc([C@@H]2CCNC[C@H]2COc2ccc3c(c2)OCO3)cc1 [Paroxetine HCl]", "OBSERVED VALUE": 0.09}
{"COMPOUND": "Cc1nc(NC(=O)N2CCC[C@H]2C(N)=O)sc1-c1ccnc(C(C)(C)C(F)(F)F)c1 [Alpelisib (BYL719)]", "OBSERVED VALUE": 0.36}
{"COMPOUND": "CC1(C)S[C@@H]2[C@H](NC(=O)Cc3ccccc3)C(=O)N2[C@H]1C(=O)O [Penicillin G Sodium]", "OBSERVED VALUE": -0.3}
{"COMPOUND": "O=C1CN(/N=C/c2ccc(-c3ccc([N+](=O)[O-])cc3)o2)C(=O)N1 [Dantrolene sodium]", "OBSERVED VALUE": 0.84}
{"COMPOUND": "CCC(=O)c1c(O)cc(O)cc1O [Flopropione]", "OBSERVED VALUE": 0.18}
{"COMPOUND": "CC(C(=O)O)c1ccc2c(c1)CC(=O)c1ccccc1S2 (stereo unspecified) [Zaltoprofen]", "OBSERVED VALUE": 0.04}
{"COMPOUND": "CCC[C@@H]1C[C@@H](C(=O)N[C@@H]([C@H]2O[C@H](SC)[C@H](OP(=O)(O)O)[C@@H](O)[C@H]2O)[C@H](C)Cl)N(C)C1 [Clindamycin Phosphate]", "OBSERVED VALUE": -0.77}

Fill in z-score of subpopulation abundance for record Nc1nc2ccc(OC(F)(F)F)cc2s1 [Riluzole]
-0.43

Fill in z-score of subpopulation abundance for record O=C(N[C@H](CO)[C@H](O)c1ccc([N+](=O)[O-])cc1)C(Cl)Cl [Chloramphenicol]
-0.01

Fill in z-score of subpopulation abundance for record COc1ccc(Cl)cc1C(=O)NCCc1ccc(S(=O)(=O)NC(=O)NC2CCCCC2)cc1 [Glyburide (Glibenclamide)]
0.81

Fill in z-score of subpopulation abundance for record CC[C@H]1OC(=O)C[C@@H](O)[C@H](C)[C@@H](O[C@@H]2O[C@H](C)[C@@H](O[C@H]3C[C@@](C)(O)[C@@H](O)[C@H](C)O3)[C@H](N(C)C)[C@H]2O)[C@@H](CC=O)C[C@@H](C)C(=O)/C=C/C(C)=C/[C@@H]1CO[C@@H]1O[C@H](C)[C@@H](O)[C@@H](OC)[C@H]1OC [Tylosin]
2.22

Fill in z-score of subpopulation abundance for record OB1OCc2cc(F)ccc21 [Tavaborole (AN-2690)]
14.2

Fill in z-score of subpopulation abundance for record Cc1c(Cl)cccc1Nc1ccccc1C(=O)O [Tolfenamic Acid]
-1.01

Fill in z-score of subpopulation abundance for record C=CC[N+]1([C@H]2C[C@H]3[C@@H]4CC[C@H]5C[C@H](O)[C@@H](N6CCOCC6)C[C@]5(C)[C@H]4CC[C@]3(C)[C@H]2OC(C)=O)CCCC1 [Rocuronium Bromide]
-0.21

Fill in z-score of subpopulation abundance for record C=C[C@H]1CN2CC[C@H]1C[C@@H]2[C@@H](O)c1ccnc2ccc(OC)cc12 [Quinidine sulfate]
0.89

Fill in z-score of subpopulation abundance for record CCN(CC)C(=O)[C@@]1(c2ccccc2)C[C@H]1CN [Levomilnacipran Hydrochloride]
-0.22
